Where do these numbers come from? They come from patent US20170247475A1.

SUBJECT_OF_TEST: T1, recombinant human VEGF165 (human, UniProt P15692-4 27-191)
T1 construct: also called hVEGF165; rhVEGF165
PROTOCOL_NOTES: ELISA screen, periplasmic extract on coated hVEGF165

- BINDER: "VEGFBII08E06 (VHH) VHH: EVQLVESGGGLVQPGGSLRLSCAASGSIVRSDVMGWYRQAPGKQRELVAFIRSLGSTYYAGSVKGRFTISRDDAANTVYLQMNNLKPEDTAVYYCNARFSGESYWGQGTPVTVSS"
  binding result: "binds"
- BINDER: "VEGFBII11C11 (VHH) VHH: EVQLVESGGGLVQAGGSLMLSCAASGRALSSYAIGWFRQAPGREREFVARISWSGANTYYADSVKGRFTISRGNAKNTVYLQMNSLKPEDTAAYYCAAQTTSKYDNYDARAYGYWGQGTQVTVSS"
  binding result: "binds"
